# System: C. neoformans
# test.protocol: Broth microdilution susceptibility testing (CLSI M27-A3)
# Type: cell-based, Cryptococcus neoformans
# applied.conditions: Cryptococcus neoformans, C. neoformans isolate DUMC 118.00 (FLC resistant); read-out: MIC
quantity.name: MIC (µg/mL)

For orientation, consider the following solved cases.
>  <compound>
C[C@@H]1[C@H](O)[C@@H](C)/C=C/C=C/C=C/C=C/C=C/C=C/C=C/[C@H](O[C@@H]2O[C@H](C)[C@@H](O)[C@H](N)[C@@H]2O)C[C@@H]2O[C@](O)(C[C@@H](O)C[C@@H](O)[C@H](O)CC[C@@H](O)C[C@@H](O)CC(=O)O[C@H]1C)C[C@H](O)[C@H]2C(=O)O [AMB, amphotericin B, reference compound]

>  <recorded.value>
0.25

$$$$
>  <compound>
Nc1ncccc1-c1cc(Cc2ccc(OCc3ccccc3)nc2)no1 [APX2041]

>  <recorded.value>
0.063

$$$$

I: Nc1ncccc1-c1cc(Cc2ccc(Oc3cccc(F)n3)cc2)no1 [APX2039]
II: Nc1ncccc1-c1cc(Cc2ccc(OCc3ccccc3)cc2)no1 [APX2020]
III: Nc1ncccc1-c1cc(Cc2ccc(COc3ccccn3)cc2)no1 [APX001A]
IV: OC(Cn1cncn1)(Cn1cncn1)c1ccc(F)cc1F [FLC, fluconazole, reference compound]
Query: Order the 4 compounds from highest to lowest MIC. List each label, following the requested order.
Response: IV, III, II, I

* * *

# Test system: C. albicans 90028
# test.protocol: Broth microdilution susceptibility testing (CLSI M27-A3)
# Assay type: cell-based, Candida albicans
# applied.conditions: Candida albicans, 90028; read-out: MIC, C. albicans 90028
quantity.name: MIC (µg/mL)

In the examples that follow, each entry is paired with its recorded MIC.
>  <molecule>
C[C@@H]1[C@H](O)[C@@H](C)/C=C/C=C/C=C/C=C/C=C/C=C/C=C/[C@H](O[C@@H]2O[C@H](C)[C@@H](O)[C@H](N)[C@@H]2O)C[C@@H]2O[C@](O)(C[C@@H](O)C[C@@H](O)[C@H](O)CC[C@@H](O)C[C@@H](O)CC(=O)O[C@H]1C)C[C@H](O)[C@H]2C(=O)O [AMB, amphotericin B, reference compound]

>  <quantity.name>
MIC

>  <recorded.value>
1

$$$$
>  <molecule>
Nc1ncccc1-c1cc(Cc2ccc(Oc3cccc(F)n3)cc2)no1 [APX2039]

>  <quantity.name>
MIC

>  <recorded.value>
0.031

$$$$
>  <molecule>
Nc1ncccc1-c1cc(Cc2ccc(OCc3ccccc3)nc2)no1 [APX2041]

>  <quantity.name>
MIC

>  <recorded.value>
0.031

$$$$
>  <molecule>
OC(Cn1cncn1)(Cn1cncn1)c1ccc(F)cc1F [FLC, fluconazole, reference compound]

>  <quantity.name>
MIC

>  <recorded.value>
0.5

$$$$

a: Nc1ncccc1-c1cc(Cc2ccc(COc3ccccn3)cc2)no1 [APX001A]
b: Nc1ncccc1-c1cc(Cc2ccc(OCc3ccccc3)cc2)no1 [APX2020]
Query: // returns a or b , whichever has the lower MIC Lab note: record the label of whichever item you select.
Response: a
(a: 0.008 µg/mL, b: 0.016 µg/mL)

* * *

# test.protocol: Single-dose mouse pharmacokinetics of prodrugs with or without ABT
# Type: in vivo
# applied.conditions: male, CD-1, mouse, plasma, po, 26 mg/kg, AUC of analyte in plasma after 26 mg/kg of the corresponding prodrug; male CD-1 mice; no ABT; read-out: Avg AUC resulting from 26-mg/kg dose, p.o. dosing
# Method: The area under the curve (AUC) was calculated from time zero to the time of the last measurable concentration. The active metabolite concentrations in plasma (APX001A, APX2039, APX2020, and APX2041) were determined by liquid chromatography-tandem mass spectrometry. PK parameters were determined using Phoenix WinNonlin (v7.0) software and a noncompartmental model.
quantity.name: AUC (ng·h/mL)

>  <molecule>
Nc1ncccc1-c1cc(Cc2ccc(COc3ccccn3)cc2)no1 [APX001A]

>  <quantity.name>
AUC

>  <recorded.value>
2760

$$$$
>  <molecule>
Nc1ncccc1-c1cc(Cc2ccc(OCc3ccccc3)cc2)no1

>  <quantity.name>
AUC

>  <recorded.value>
4490

$$$$

1: Nc1ncccc1-c1cc(Cc2ccc(Oc3cccc(F)n3)cc2)no1
2: Nc1ncccc1-c1cc(Cc2ccc(OCc3ccccc3)nc2)no1
Query: Rank 1 against 2 by their AUC values and give the higher one. Respond using the label that marks the chosen record.
Response: 1
